Test system: Ba/F3 cells expressing EGFR mutations
method-summary: Cell proliferation assay, Ba/F3 cells expressing EGFR mutations (CellTiter-Glo, 72 hours)
Assay type: cell-based
experimental-setup: BaF3 cells, EGFR L858R-T790M, CellTiter-Glo, read-out: L858R-T790M/BaF3 GI50
reported-property: log10(GI50) (log10 of the value in nM)
Each number you see is log10 of GI50, and the unit inside the log is nM.

Form field - read-out: log10(GI50); system: Ba/F3 cells expressing EGFR mutations; submitted item: CN1CCN(C2CCN(c3ccc4nc5n(c4c3)C34CCC(CN(CCOc6c(cnn6C)-c6cc(cn(C)c6=O)C(=O)N5)C3)C4)C2)CC1 (single isomer, unassigned) [Example A80A] 2.65

One more molecule: CN1CCN(C2CCN(c3ccc4nc5n(c4c3)C34CCC(CN(CCOc6c(cnn6C)-c6cc(cn(C)c6=O)C(=O)N5)C3)C4)CC2)CC1 (single isomer, unassigned) [Example A106A] 2.59

One more molecule: CCN1CCN(c2ccc3nc4n(c3c2)C23CCC(CN(CCOc5c(cnn5C)-c5cc(cn(C)c5=O)C(=O)N4)C2)C3)CC1 (single isomer, unassigned) [Example A107B] 0.61

One more molecule: Cn1ncc2c1OCCN1CC3CCC(C3)(C1)n1c(nc3ccc(N4CCC(N5CC(F)C5)C4)cc31)NC(=O)c1cc-2c(=O)n(C)c1 (single isomer, unassigned) [Example A94A1] 3.42

One more molecule: Cn1ncc2c1OCCN1CC3CCC(C3)(C1)n1c(nc3ccc(N4CCC(N5CC(F)C5)C4)cc31)NC(=O)c1cc-2c(=O)n(C)c1 (single isomer, unassigned) [Example A94A2] 3.43
